Origin of measurements: patent US12599136B2

- Tested on: Hordeum murinum
- PROTOCOL_DESCRIPTION: Pre-emergence herbicidal action against HORMU
- Type: in vivo
- CONDITION: 80 g/ha; visual score after 3 weeks vs untreated controls
Reported Pre-emergence action against HORMU values follow for various compounds
MEASUREMENT_NAME: Pre-emergence action against HORMU (%)

CCCn1nnnc1NC(=O)c1ccc(C(F)(F)F)c(C(=O)N(C)C)c1Cl [Example 3-123] = 80
CCn1nnnc1NC(=O)c1ccc(C(F)(F)F)c(C(=O)N(C)C)c1Cl [Example 2-123] = 80
CN(CC1CC1)C(=O)c1c(C(F)(F)F)ccc(C(=O)Nc2nnnn2C)c1Cl [Example 1-126] = 80
Cn1nnnc1NC(=O)c1ccc(C(F)(F)F)c(C(=O)n2cccn2)c1Cl [Example 1-153] = 80
CN(C)C(=O)c1c(C(F)(F)F)ccc(C(=O)Nc2nnnn2C)c1Cl [Example 1-123] = 90
CCN(C)C(=O)c1c(C(F)(F)F)ccc(C(=O)Nc2nnnn2C)c1Cl [Example 1-124] = 90
CCN(C)C(=O)c1c(C(F)(F)F)ccc(C(=O)Nc2nnnn2CC)c1Cl [Example 2-124] = 80
Cn1nnnc1NC(=O)c1ccc(C(F)(F)F)c(C(=O)N2CCCC2)c1Cl [Example 1-152] = 90
